protocol_text: Aqueous stability of the compound in HCL at pH 1 assessed as compound half life measured after 24 hrs by UPLC analysis
Assay type: physicochemical
condition_details: aqueous HCl, pH 1
test_readout: half-life

Worked set:
compound	test_readout	result
COC(=O)N[C@H](C(=O)N[C@@H](Cc1ccccc1)[C@H](CN(Cc1ccc(-c2ccccn2)cc1)NC(=O)[C@@H](NC(=O)OC)C(C)(C)C)OC(=O)OC(OC(=O)[C@@H](NC(=O)[C@@H](N)C(C)C)C(C)C)C(C)C)C(C)(C)C (stereo in doubt; 6e)	half-life	> 20.8 days
COC(=O)N[C@H](C(=O)N[C@@H](Cc1ccccc1)[C@H](CN(Cc1ccc(-c2ccccn2)cc1)NC(=O)[C@@H](NC(=O)OC)C(C)(C)C)OC(=O)OC(OC(=O)[C@@H](NC(=O)[C@H](N)C(C)C)C(C)C)C(C)C)C(C)(C)C (stereo in doubt; 6g)	half-life	> 20.8 days
COC(=O)N[C@H](C(=O)N[C@@H](Cc1ccccc1)[C@H](CN(Cc1ccc(-c2ccccn2)cc1)NC(=O)[C@@H](NC(=O)OC)C(C)(C)C)OC(=O)OC(OC(=O)CCN)C(C)C)C(C)(C)C (stereo in doubt; 3z)	half-life	> 20.8 days
COC(=O)N[C@H](C(=O)N[C@@H](Cc1ccccc1)[C@H](CN(Cc1ccc(-c2ccccn2)cc1)NC(=O)[C@@H](NC(=O)OC)C(C)(C)C)OC(=O)OC(OC(=O)C1(N)CC1)C(C)C)C(C)(C)C (stereo in doubt; 3x)	half-life	> 20.8 days
COC(=O)N[C@H](C(=O)N[C@@H](Cc1ccccc1)[C@H](CN(Cc1ccc(-c2ccccn2)cc1)NC(=O)[C@@H](NC(=O)OC)C(C)(C)C)OC(=O)OC(OC(=O)[C@H](C)N)C(C)C)C(C)(C)C (stereo in doubt; 3p)	half-life	6.6 days

Below: the item to evaluate.
Q: # half-life lookup, item COC(=O)N[C@H](C(=O)N[C@@H](Cc1ccccc1)[C@H](CN(Cc1ccc(-c2ccccn2)cc1)NC(=O)[C@@H](NC(=O)OC)C(C)(C)C)OC(=O)OC(OC(=O)[C@@H](N)C(C)C)C(C)C)C(C)(C)C (stereo in doubt; 3r)
A: > 20.8 days

====

protocol_text: Ratio of Cmax/Cmin of Atazanavir in Sprague-Dawley rat at 3 ml/kg,po measured after 24 hrs by UPLC-MS/MS analysis
Type: ADME
condition_details: in vivo
test_readout: Ratio

Worked set:
compound	Ratio
COC(=O)N[C@H](C(=O)N[C@@H](Cc1ccccc1)[C@H](CN(Cc1ccc(-c2ccccn2)cc1)NC(=O)[C@@H](NC(=O)OC)C(C)(C)C)OC(=O)OC(OC(=O)[C@@H](N)CC(C)C)C(C)C)C(C)(C)C (stereo in doubt; 3t)	304.4
COC(=O)N[C@H](C(=O)N[C@@H](Cc1ccccc1)[C@H](CN(Cc1ccc(-c2ccccn2)cc1)NC(=O)[C@@H](NC(=O)OC)C(C)(C)C)OC(=O)OC(OC(=O)[C@H](C(C)C)N(C)C)C(C)C)C(C)(C)C (stereo in doubt; 5h)	22.7

A. COC(=O)N[C@H](C(=O)N[C@@H](Cc1ccccc1)[C@H](CN(Cc1ccc(-c2ccccn2)cc1)NC(=O)[C@@H](NC(=O)OC)C(C)(C)C)OC(=O)OC(OC(=O)[C@H](N)C(C)C)C(C)C)C(C)(C)C (stereo in doubt; 5j)
B. COC(=O)N[C@H](C(=O)N[C@@H](Cc1ccccc1)[C@H](CN(Cc1ccc(-c2ccccn2)cc1)NC(=O)[C@@H](NC(=O)OC)C(C)(C)C)OC(=O)OC(OC(=O)[C@@H](N)C(C)C)C(C)(C)C)C(C)(C)C (stereo in doubt; 4m)
Q: Among A and B , whose measured Ratio is the smaller figure? Answer by quoting the chosen item's label.
A: A
(A: 86.9, B: 721.4)
